# target-entity: human AspH (His6-AspH315–758) (Homo sapiens, UniProt Q12797)
# Construct: N-Terminally His6-tagged human AspH315–758 (His6-AspH315–758) was produced in Escherichia coli BL21 (DE3) cells; made in house; host or cells: Escherichia coli BL21 (DE3), pET-28a(+) vector
# Sequence (Q12797 315-758): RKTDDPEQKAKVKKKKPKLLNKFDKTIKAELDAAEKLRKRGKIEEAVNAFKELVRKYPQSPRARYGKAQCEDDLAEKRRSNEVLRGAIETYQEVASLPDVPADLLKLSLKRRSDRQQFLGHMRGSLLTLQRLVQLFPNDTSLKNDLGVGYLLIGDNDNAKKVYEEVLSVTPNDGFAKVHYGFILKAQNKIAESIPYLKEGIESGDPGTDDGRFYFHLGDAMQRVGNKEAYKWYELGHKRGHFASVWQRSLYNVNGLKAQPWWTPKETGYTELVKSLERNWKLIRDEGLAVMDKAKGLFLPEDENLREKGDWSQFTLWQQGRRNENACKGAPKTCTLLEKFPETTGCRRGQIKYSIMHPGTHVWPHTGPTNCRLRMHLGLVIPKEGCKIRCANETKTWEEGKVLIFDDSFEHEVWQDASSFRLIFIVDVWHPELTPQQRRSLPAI
# protocol-description: SPE-MS AspH inhibition assay (hFX-CP101-119 substrate hydroxylation)
# Type: biochemical
# cond: AspH-inhibitor screening, 384-well Plate 1, substrate conversion
reported-property: Plate 1 (% conversion) (%)
Kindly provide the numeric value in % only, without the unit symbol.

Record excerpt, results attached:
COc1cccc2c1C(=O)c1c(O)c3c(c(O)c1C2=O)C[C@@](O)(C(=O)CO)C[C@@H]3O[C@H]1C[C@H](N)[C@H](O)[C@H](C)O1 [Doxorubicin]; 54.95
CCN(CC)CCNC(=O)c1c(C)[nH]c(/C=C2\C(=O)Nc3ccc(F)cc32)c1C [Sunitinib]; 68.35

Q: Can you look up the measured Plate 1 (% conversion) of O=C(CCCCCCC(=O)Nc1ccc([C@H]2O[C@@H](CSc3nc(-c4ccccc4)c(-c4ccccc4)o3)C[C@@H](c3ccc(CO)cc3)O2)cc1)NO [Tubacin, reference compound] for me?
A: 6.91

Q: Can you look up the measured Plate 1 (% conversion) of O=c1[nH]c(=O)n([C@H]2C[C@H](O)[C@@H](CO)O2)cc1F [Floxuridine] for me?
A: 49.41

Q: Can you look up the measured Plate 1 (% conversion) of CCC(C)(C)C(=O)O[C@H]1C[C@@H](C)C=C2C=C[C@H](C)[C@H](CC[C@@H]3C[C@@H](O)CC(=O)O3)[C@H]21 [Simvastatin] for me?
A: 56.97

Q: Can you look up the measured Plate 1 (% conversion) of COc1cc([C@@H]2c3cc4c(cc3[C@@H](O[C@@H]3O[C@@H]5CO[C@@H](C)O[C@H]5[C@H](O)[C@H]3O)[C@H]3COC(=O)[C@H]23)OCO4)cc(OC)c1O [Etoposide] for me?
A: 49.95

###

# target-entity: human AspH (His6-AspH315–758) (Homo sapiens)
# Construct: N-Terminally His6-tagged human AspH315–758 (His6-AspH315–758) was produced in Escherichia coli BL21 (DE3) cells; made in house; host or cells: Escherichia coli BL21 (DE3), pET-28a(+) vector
# protocol-description: SPE-MS AspH inhibition assay (hFX-CP101-119 substrate hydroxylation)
# Format: biochemical
# cond: AspH-inhibitor screening, 384-well Plate 1
Structures can show the parent of a compound that is named as a salt.
molecules and their reported Plate 1 (% inhibition)
Kindly provide the numeric value in % only, without the unit symbol.

O=c1[nH]c(=O)n([C@H]2C[C@H](O)[C@@H](CO)O2)cc1C(F)(F)F [Trifluridine]; 1.86
N[C@@H](Cc1ccc(N(CCCl)CCCl)cc1)C(=O)O [Melphalan]; 9.41
CO[C@H]1C[C@@H]2CC[C@@H](C)[C@@](O)(O2)C(=O)C(=O)N2CCCC[C@H]2C(=O)O[C@H]([C@H](C)C[C@@H]2CC[C@@H](OP(C)(C)=O)[C@H](OC)C2)CC(=O)[C@H](C)/C=C(\C)[C@@H](O)[C@@H](OC)C(=O)[C@H](C)C[C@H](C)/C=C/C=C/C=C/1C [Ridaforolimus]; 16.02
CCc1c2c(nc3ccc(OC(=O)N4CCC(N5CCCCC5)CC4)cc13)-c1cc3c(c(=O)n1C2)COC(=O)[C@]3(O)CC [Irinotecan]; 1.66
O=NN(CCCl)C(=O)NC1CCCCC1 [Lomustine]; 9.88
O=NN(CCCl)C(=O)NCCCl [Carmustine]; 1.59
Cc1cc(Nc2nc(N[C@@H](C)c3ncc(F)cn3)ncc2Cl)n[nH]1 [AZD1480]; -0.12
CCN(CC)CCCC(C)Nc1c2ccc(Cl)cc2nc2ccc(OC)cc12 (stereo not shown) [Quinacrine HCl]; 11.37

Q: Can you look up the measured Plate 1 (% inhibition) of C=CCc1cccc(/C=N/NC(=O)CN2CCN(Cc3ccccc3)CC2)c1O [PAC-1] for me?
A: 3.72

Q: Can you look up the measured Plate 1 (% inhibition) of CCCCCCCCCCCCCCCCCCOP(=O)([O-])OC1CC[N+](C)(C)CC1 [Perifosine aq/PBS] for me?
A: -1.17

Q: Can you look up the measured Plate 1 (% inhibition) of Cl.NC(=O)Nc1cc(-c2cccc(F)c2)sc1C(=O)N[C@H]1CCCNC1 [AZD 7762 hydrochloride] for me?
A: 14.30

Q: Can you look up the measured Plate 1 (% inhibition) of C#Cc1cccc(Nc2ncnc3cc(OCCOC)c(OCCOC)cc23)c1 [Erlotinib hydrochloride] for me?
A: -99.93

Q: Can you look up the measured Plate 1 (% inhibition) of CCCS(=O)(=O)Nc1ccc(F)c(C(=O)c2c[nH]c3ncc(-c4ccc(Cl)cc4)cc23)c1F [PLX4032_Vemurafenib] for me?
A: 39.76

Q: Can you look up the measured Plate 1 (% inhibition) of O=C(CCBr)N1CCN(C(=O)CCBr)CC1 [Pipobroman] for me?
A: 11.08

Q: Can you look up the measured Plate 1 (% inhibition) of C=C(c1ccc(C(=O)O)cc1)c1cc2c(cc1C)C(C)(C)CCC2(C)C [Bexarotene] for me?
A: -5.40

Q: Can you look up the measured Plate 1 (% inhibition) of NC(=O)c1ccc(I)c([N+](=O)[O-])c1 [Iniparib (BSI-201, IND-71677)] for me?
A: 6.32

###

# target-entity: human AspH (His6-AspH315–758) (Homo sapiens)
# Construct: N-Terminally His6-tagged human AspH315–758 (His6-AspH315–758) was produced in Escherichia coli BL21 (DE3) cells; made in house; host or cells: Escherichia coli BL21 (DE3), pET-28a(+) vector
# protocol-description: SPE-MS AspH inhibition assay (hFX-CP101-119 substrate hydroxylation)
# Type: biochemical
# cond: AspH-inhibitor screening, 384-well Plate 1
Counter-ions that a name gives are not always drawn.
molecules and their reported Plate 1 (% inhibition)
Kindly provide the numeric value in % only, without the unit symbol.

S=P(N1CC1)(N1CC1)N1CC1; 17.81
CC(=O)Oc1ccccc1C(=O)O; 8.11
CS(=O)(=O)OCCCCOS(C)(=O)=O; 14.61
CNC(=O)c1cc(Oc2ccc(NC(=O)Nc3ccc(Cl)c(C(F)(F)F)c3)cc2)ccn1; 50.93
O=C(O)C(=O)O.[NH-][C@@H]1CCCC[C@H]1[NH-].[Pt+2]; 8.19

Q: Can you look up the measured Plate 1 (% inhibition) of CC(=O)Nc1ccc(C(=O)Nc2ccccc2N)cc1 for me?
A: 4.32

Q: Can you look up the measured Plate 1 (% inhibition) of CN[C@@H]1C[C@H]2O[C@@](C)([C@@H]1OC)n1c3ccccc3c3c4c(c5c6ccccc6n2c5c31)C(=O)N[C@H]4O for me?
A: 3.15

Q: Can you look up the measured Plate 1 (% inhibition) of CO[C@H]1C[C@@H]2CC[C@@H](C)[C@@](O)(O2)C(=O)C(=O)N2CCCC[C@H]2C(=O)O[C@H]([C@H](C)C[C@@H]2CC[C@@H](OC(=O)C(C)(CO)CO)[C@H](OC)C2)CC(=O)[C@H](C)/C=C(\C)[C@@H](O)[C@@H](OC)C(=O)[C@H](C)C[C@H](C)/C=C/C=C/C=C/1C for me?
A: 35.77

Q: Can you look up the measured Plate 1 (% inhibition) of CN(C)CCOc1ccc(/C(=C(/CCCl)c2ccccc2)c2ccccc2)cc1 [Toremifene citrate] for me?
A: 75.12

Q: Can you look up the measured Plate 1 (% inhibition) of C[C@]12O[C@H](C[C@]1(O)CO)n1c3ccccc3c3c4c(c5c6ccccc6n2c5c31)CNC4=O for me?
A: 20.36

Q: Can you look up the measured Plate 1 (% inhibition) of Cc1ccc([N+](=O)[O-])cc1S(=O)(=O)N(C)/N=C/c1cnc2ccc(Br)cn12.Cl [PIK-75 HCl] for me?
A: -11.59

Q: Can you look up the measured Plate 1 (% inhibition) of COc1cc(F)c(F)c(Nc2ccc(I)cc2F)c1NS(=O)(=O)C1(C[C@H](O)CO)CC1 for me?
A: 2.93

Q: Can you look up the measured Plate 1 (% inhibition) of CNC(=O)c1cc(Oc2ccc(NC(=O)Nc3cc(C(C)(C)C)nn3-c3ccc4ncccc4c3)c(F)c2)ccn1 for me?
A: 0.16

Q: Can you look up the measured Plate 1 (% inhibition) of COc1cc2ncnc(Nc3ccc(F)c(Cl)c3)c2cc1NC(=O)/C=C/CN1CCCCC1.O [Dacomitinib (monohydrate) (PF-00299804)] for me?
A: -68.38

Q: Can you look up the measured Plate 1 (% inhibition) of COc1cc(Nc2c(C#N)cnc3cc(OCCCN4CCN(C)CC4)c(OC)cc23)c(Cl)cc1Cl for me?
A: -48.53
